In this section we review reported Ratio values for a set of compounds.
- Target: Modulator of drug activity A (Escherichia coli O157:H7)
- Measurement notes: IC50 ratio for NR-positive and NR-negative cell lines
- Format: functional
Field format: numeric only.

Some compounds with recorded Ratio:
{"Compound": "NC(=O)c1cc(N(CCBr)CCBr)c([N+](=O)[O-])cc1[N+](=O)[O-]", "Ratio": 2530}
{"Compound": "CN(C)CCNC(=O)c1c([N+](=O)[O-])ccc(N(CCCl)CCCl)c1[N+](=O)[O-]", "Ratio": 0.8}
{"Compound": "NC(=O)c1cc(N(CCI)CCI)c([N+](=O)[O-])cc1[N+](=O)[O-]", "Ratio": 494}
{"Compound": "O=C(NCC(O)CO)c1cc([N+](=O)[O-])cc([N+](=O)[O-])c1N(CCI)CCI (stereo not drawn)", "Ratio": 21.5}

Query: Send back Modulator of drug activity A (Escherichia coli O157:H7) Ratio of NC(=O)c1cc(N(CCCl)CCCl)c([N+](=O)[O-])cc1[N+](=O)[O-] only.
Response: 63
